Target: Peroxisome proliferator-activated receptor alpha (Homo sapiens)
Test: Antagonist activity at human PPARalpha assessed as effect on TIPP-703-induced activity at 10 uM
The following molecules are shown together with reported inhibition values.

structure notation	target	inhibition
CCOc1ccc(-c2ccc(C(=O)O)cc2C)cc1CNC(=O)c1ccc(C(F)(F)F)cc1F	Peroxisome proliferator-activated receptor alpha (Homo sapiens)	49.5%
CCCCCOc1ccc(-c2ccc(C(=O)O)cc2C)cc1CNC(=O)c1ccc(C(F)(F)F)cc1F	Peroxisome proliferator-activated receptor alpha (Homo sapiens)	23.3%
CCCCOc1ccc(-c2ccc(C(=O)O)cc2Cl)cc1CNC(=O)c1ccc(C(F)(F)F)cc1	Peroxisome proliferator-activated receptor alpha (Homo sapiens)	30.7%
CCCOc1ccc(-c2ccc(C(=O)O)cc2C)cc1CNC(=O)c1ccc(C(F)(F)F)cc1F	Peroxisome proliferator-activated receptor alpha (Homo sapiens)	49.5%
CCCCOc1ccc(-c2ccc(C(=O)O)cc2F)cc1CNC(=O)c1ccc(C(F)(F)F)cc1	Peroxisome proliferator-activated receptor alpha (Homo sapiens)	25.4%
O=C(Nc1ccncc1)c1cc([N+](=O)[O-])ccc1Cl	Peroxisome proliferator-activated receptor alpha (Homo sapiens)	31.8%
CCCCOc1ccc(-c2ccc(C(=O)O)cc2C)cc1CNC(=O)c1ccc(C(F)(F)F)cc1	Peroxisome proliferator-activated receptor alpha (Homo sapiens)	12.6%

* * *

Molecular target: Peroxisome proliferator-activated receptor delta (Homo sapiens, UniProt Q03181)
Sequence (Q03181 whole entry): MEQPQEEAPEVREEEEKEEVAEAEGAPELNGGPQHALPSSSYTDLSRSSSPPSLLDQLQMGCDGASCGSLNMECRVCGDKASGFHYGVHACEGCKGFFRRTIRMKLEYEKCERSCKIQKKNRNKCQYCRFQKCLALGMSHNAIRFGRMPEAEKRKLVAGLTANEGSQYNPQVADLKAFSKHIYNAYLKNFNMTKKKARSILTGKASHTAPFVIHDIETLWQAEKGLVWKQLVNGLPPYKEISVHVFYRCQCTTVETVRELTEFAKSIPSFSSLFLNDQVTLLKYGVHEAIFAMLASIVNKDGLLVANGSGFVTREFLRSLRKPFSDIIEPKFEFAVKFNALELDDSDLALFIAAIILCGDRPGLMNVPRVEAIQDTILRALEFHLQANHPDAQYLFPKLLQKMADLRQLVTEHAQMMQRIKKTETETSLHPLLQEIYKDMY
Experiment: Antagonist activity at human PPARdelta assessed as effect on TIPP-703-induced activity
Settings: read-out: IC50
pIC50: −log10 of the molar value.
readout label: pIC50

structure notation	value relation sign	value measured
CCCCOc1ccc(-c2ccc(C(=O)O)cc2F)cc1CNC(=O)c1ccc(C(F)(F)F)cc1	=	7.00
CCOc1ccc(-c2ccc(C(=O)O)cc2C)cc1CNC(=O)c1ccc(C(F)(F)F)cc1F	=	7.55
CCCCOc1ccc(-c2ccc(C(=O)O)cc2Cl)cc1CNC(=O)c1ccc(C(F)(F)F)cc1	=	7.89
CCCCCOc1ccc(-c2ccc(C(=O)O)cc2C)cc1CNC(=O)c1ccc(C(F)(F)F)cc1F	=	7.04
CCCCOc1ccc(-c2ccc(C(=O)O)cc2C)cc1CNC(=O)c1ccc(C(F)(F)F)cc1	=	7.72
O=C(Nc1ccncc1)c1cc([N+](=O)[O-])ccc1Cl	<	5.00
CCCOc1ccc(-c2ccc(C(=O)O)cc2C)cc1CNC(=O)c1ccc(C(F)(F)F)cc1F	=	7.54

* * *

Test system: Hepatitis C virus
Test: Antiviral activity against HCV infected in […] OR6 cells assessed as inhibition of viral RNA replication after 72 hrs by luciferase reporter gene assay
Type: functional, Hepacivirus hominis
Conditions: OR6, 72 h, read-out: ED50 (the source's name)
Lab note: compare EC50 with 500 nM, writing 1.0 if less and 0.0 if equal or more.

structure notation	assigned category
CCOc1ccc(-c2ccc(C(=O)O)cc2C)cc1CNC(=O)c1ccc(C(F)(F)F)cc1F	1.0
CCCCOc1ccc(-c2ccc(C(=O)O)cc2Cl)cc1CNC(=O)c1ccc(C(F)(F)F)cc1	0.0
O=C(Nc1ccncc1)c1cc([N+](=O)[O-])ccc1Cl	0.0
CCCCOc1ccc(-c2ccc(C(=O)O)cc2C)cc1CNC(=O)c1ccc(C(F)(F)F)cc1	1.0
CCCCCOc1ccc(-c2ccc(C(=O)O)cc2C)cc1CNC(=O)c1ccc(C(F)(F)F)cc1F	0.0
CCCCOc1ccc(-c2ccc(C(=O)O)cc2F)cc1CNC(=O)c1ccc(C(F)(F)F)cc1	0.0
NC(=O)c1ncn([C@@H]2O[C@H](CO)[C@@H](O)[C@H]2O)n1	0.0
CCCOc1ccc(-c2ccc(C(=O)O)cc2C)cc1CNC(=O)c1ccc(C(F)(F)F)cc1F	1.0

* * *

Experiment: Cytotoxicity against […] OR6 cells after 72 hrs by WST1 assay
Type: cell-based
Note to self: CC50 at 72 h under 3000 nM means rule met, ties and anything higher get rule not met.

structure notation	assigned category
O=C(Nc1ccncc1)c1cc([N+](=O)[O-])ccc1Cl	rule met
CCOc1ccc(-c2ccc(C(=O)O)cc2C)cc1CNC(=O)c1ccc(C(F)(F)F)cc1F	rule not met
CCCOc1ccc(-c2ccc(C(=O)O)cc2C)cc1CNC(=O)c1ccc(C(F)(F)F)cc1F	rule met
CCCCOc1ccc(-c2ccc(C(=O)O)cc2F)cc1CNC(=O)c1ccc(C(F)(F)F)cc1	rule not met
CCCCOc1ccc(-c2ccc(C(=O)O)cc2C)cc1CNC(=O)c1ccc(C(F)(F)F)cc1	rule met
CCCCOc1ccc(-c2ccc(C(=O)O)cc2Cl)cc1CNC(=O)c1ccc(C(F)(F)F)cc1	rule not met
NC(=O)c1ncn([C@@H]2O[C@H](CO)[C@@H](O)[C@H]2O)n1	rule not met
CCCCCOc1ccc(-c2ccc(C(=O)O)cc2C)cc1CNC(=O)c1ccc(C(F)(F)F)cc1F	rule met
